target: EGFR (human) (UniProt P00533); details: A431
Sequence (P00533 whole entry, looked up): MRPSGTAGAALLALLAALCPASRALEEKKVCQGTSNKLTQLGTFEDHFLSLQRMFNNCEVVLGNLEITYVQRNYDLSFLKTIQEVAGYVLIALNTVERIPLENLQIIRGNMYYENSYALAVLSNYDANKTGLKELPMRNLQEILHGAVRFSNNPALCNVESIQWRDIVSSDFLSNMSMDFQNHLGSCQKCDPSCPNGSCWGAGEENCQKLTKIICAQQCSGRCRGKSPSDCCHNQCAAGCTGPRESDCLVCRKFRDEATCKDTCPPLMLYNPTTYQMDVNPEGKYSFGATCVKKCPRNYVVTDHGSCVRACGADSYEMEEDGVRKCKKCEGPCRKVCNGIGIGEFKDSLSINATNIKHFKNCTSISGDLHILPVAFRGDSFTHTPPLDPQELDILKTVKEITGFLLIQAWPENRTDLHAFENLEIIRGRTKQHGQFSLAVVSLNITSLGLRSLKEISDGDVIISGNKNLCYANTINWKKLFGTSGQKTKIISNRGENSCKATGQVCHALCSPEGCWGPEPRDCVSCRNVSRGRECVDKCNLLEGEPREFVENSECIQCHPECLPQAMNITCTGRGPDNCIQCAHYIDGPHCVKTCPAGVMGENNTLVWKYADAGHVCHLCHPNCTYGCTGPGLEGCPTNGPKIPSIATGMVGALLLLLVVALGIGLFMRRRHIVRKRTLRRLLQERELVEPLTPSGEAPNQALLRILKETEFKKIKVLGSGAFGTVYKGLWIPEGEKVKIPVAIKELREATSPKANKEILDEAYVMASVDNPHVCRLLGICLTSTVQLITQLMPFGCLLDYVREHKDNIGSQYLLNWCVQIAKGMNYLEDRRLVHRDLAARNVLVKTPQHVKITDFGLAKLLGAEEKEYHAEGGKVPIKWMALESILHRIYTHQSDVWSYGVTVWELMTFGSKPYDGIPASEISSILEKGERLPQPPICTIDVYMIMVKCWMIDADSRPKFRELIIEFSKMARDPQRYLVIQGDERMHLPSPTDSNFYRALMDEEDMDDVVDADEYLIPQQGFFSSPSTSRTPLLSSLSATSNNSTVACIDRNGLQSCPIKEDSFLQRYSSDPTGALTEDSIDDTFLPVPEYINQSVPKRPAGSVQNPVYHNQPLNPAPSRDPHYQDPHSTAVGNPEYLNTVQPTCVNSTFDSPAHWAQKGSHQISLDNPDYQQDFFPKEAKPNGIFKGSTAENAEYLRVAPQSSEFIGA
quantity: IC50
Quick note: unit goes after the number.

Query: Returns the measured IC50 for the input compound. Input: `C=C(C)CN1C(=O)C(=C)SC1=NN=C1SCC(=O)N1C`
Result: 5 µM

###

target: EGFR (UniProt P00533)
Sequence (P00533 whole entry, looked up): as above
quantity: IC50 (µM)
// return numeric value only (unit: µM, not printed)

# compound-smiles, units-symbol, observed
records = [
    ("CC(=S)N/C(C#N)=C/c1ccc(O)c(O)c1", "µM", 2.4),
]

Query: Returns the measured IC50 for the input molecule. Input: `N#CC(C#N)=Cc1cc(O)cc(O)c1`
Result: 35
